Target: UDP-glucuronosyltransferase 1-6 (Homo sapiens)
Sequence (P19224 whole entry): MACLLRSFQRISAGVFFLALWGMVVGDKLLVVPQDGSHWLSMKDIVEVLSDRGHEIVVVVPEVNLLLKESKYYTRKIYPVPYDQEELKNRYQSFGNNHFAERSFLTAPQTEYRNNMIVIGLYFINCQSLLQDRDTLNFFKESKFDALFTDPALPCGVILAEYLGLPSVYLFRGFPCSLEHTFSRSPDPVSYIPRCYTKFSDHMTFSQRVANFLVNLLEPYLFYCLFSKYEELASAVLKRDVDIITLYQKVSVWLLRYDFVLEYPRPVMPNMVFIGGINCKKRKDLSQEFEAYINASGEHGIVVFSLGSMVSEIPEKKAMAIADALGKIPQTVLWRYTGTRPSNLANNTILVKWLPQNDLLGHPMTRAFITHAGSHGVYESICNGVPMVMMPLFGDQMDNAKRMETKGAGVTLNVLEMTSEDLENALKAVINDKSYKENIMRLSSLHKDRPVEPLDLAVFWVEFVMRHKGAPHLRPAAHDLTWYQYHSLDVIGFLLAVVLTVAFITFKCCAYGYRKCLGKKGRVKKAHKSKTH
pIC50: −log10 of the molar value. Where a name gives a salt, the structure may show the parent alone.
pIC50 vs 4: at or above is MET, below is NOT MET.

Take a look at these entries with their results.
{"Compound": "C=C[C@H]1C[N@@]2CC[C@H]1C[C@@H]2[C@@H](O)c1ccnc2ccc(OC)cc12", "Assigned Category": "NOT MET"}
{"Compound": "CC(=O)O[C@H]1C(=O)[C@@]2(C)[C@H]([C@H](OC(=O)c3ccccc3)[C@]3(O)C[C@H](OC(=O)[C@H](O)[C@@H](NC(=O)c4ccccc4)c4ccccc4)C(C)=C1C3(C)C)[C@]1(OC(C)=O)CO[C@@H]1C[C@@H]2O", "Assigned Category": "MET"}
{"Compound": "Cc1ncc2n1-c1ccc(Cl)cc1C(c1ccccc1F)=NC2", "Assigned Category": "MET"}
{"Compound": "Cc1ncsc1CCCl", "Assigned Category": "NOT MET"}
{"Compound": "COc1ccc2c(c1)[C@@]13CCCC[C@@H]1[C@@H](C2)N(C)CC3", "Assigned Category": "NOT MET"}
{"Compound": "CCCCNC(=O)NS(=O)(=O)c1ccc(C)cc1", "Assigned Category": "NOT MET"}
{"Compound": "CCOc1ccc(NC(C)=O)cc1", "Assigned Category": "NOT MET"}
{"Compound": "C[C@]12CC[C@H]3[C@@H](CCC4=CC(=O)CC[C@@]43C)[C@@H]1CC[C@@H]2O", "Assigned Category": "NOT MET"}

Prompt line: Threshold query (pIC50 >= 4) on `O=c1cc(-c2ccccc2)oc2c1ccc1ccccc12`
Response line: MET

Prompt line: And for CC(NC(C)(C)C)C(=O)c1cccc(Cl)c1 (configuration not stated) [BUPROPION HYDROCHLORIDE] ?
Response line: NOT MET

Prompt line: And for `CC(=O)N1CCN(c2ccc(OC[C@@H]3CO[C@@](Cn4ccnc4)(c4ccc(Cl)cc4Cl)O3)cc2)CC1` ?
Response line: MET

Prompt line: And for COc1ccc2[nH]c([S+]([O-])Cc3ncc(C)c(OC)c3C)nc2c1 (configuration not stated) ?
Response line: NOT MET

----------
Target: UDP-glucuronosyltransferase 2B10 (Homo sapiens, UniProt P36537)
Sequence (P36537 whole entry): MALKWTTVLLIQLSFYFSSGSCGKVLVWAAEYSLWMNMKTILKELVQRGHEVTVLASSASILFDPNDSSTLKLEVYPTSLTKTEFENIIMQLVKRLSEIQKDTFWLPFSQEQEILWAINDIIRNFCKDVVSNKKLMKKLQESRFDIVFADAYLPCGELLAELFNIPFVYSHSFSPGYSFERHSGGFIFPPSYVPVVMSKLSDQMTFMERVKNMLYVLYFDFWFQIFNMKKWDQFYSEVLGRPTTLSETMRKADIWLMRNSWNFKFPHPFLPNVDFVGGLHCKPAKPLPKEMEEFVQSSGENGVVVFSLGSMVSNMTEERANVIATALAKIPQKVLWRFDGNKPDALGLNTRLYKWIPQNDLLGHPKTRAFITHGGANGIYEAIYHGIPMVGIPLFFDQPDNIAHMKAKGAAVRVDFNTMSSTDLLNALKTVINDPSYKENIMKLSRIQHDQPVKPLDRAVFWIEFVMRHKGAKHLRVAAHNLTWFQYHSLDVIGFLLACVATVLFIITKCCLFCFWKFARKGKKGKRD
pIC50: −log10 of the molar value.
Value Type: pIC50

{"Test Smiles": "CC(=O)N1CCN(c2ccc(OC[C@@H]3CO[C@@](Cn4ccnc4)(c4ccc(Cl)cc4Cl)O3)cc2)CC1", "pIC50": 4.66}
{"Test Smiles": "Cc1nc2c([nH]1)c(=O)n(C)c(=O)n2Cc1ccco1", "pIC50": "< 3.52"}

Prompt line: pIC50 lookup needed for `CO[C@H]1C[C@H](O[C@H]2[C@H](C)[C@@H](O[C@@H]3O[C@H](C)C[C@H](N(C)C)[C@H]3O)[C@@H](C)C[C@@]3(CO3)C(=O)[C@H](C)[C@@H](O)[C@@H](C)[C@@H](C)OC(=O)[C@@H]2C)O[C@@H](C)[C@@H]1O` , thanks.
Response line: < 3.52

----------
Biological target: UniProt P22309
Sequence (P22309 whole entry): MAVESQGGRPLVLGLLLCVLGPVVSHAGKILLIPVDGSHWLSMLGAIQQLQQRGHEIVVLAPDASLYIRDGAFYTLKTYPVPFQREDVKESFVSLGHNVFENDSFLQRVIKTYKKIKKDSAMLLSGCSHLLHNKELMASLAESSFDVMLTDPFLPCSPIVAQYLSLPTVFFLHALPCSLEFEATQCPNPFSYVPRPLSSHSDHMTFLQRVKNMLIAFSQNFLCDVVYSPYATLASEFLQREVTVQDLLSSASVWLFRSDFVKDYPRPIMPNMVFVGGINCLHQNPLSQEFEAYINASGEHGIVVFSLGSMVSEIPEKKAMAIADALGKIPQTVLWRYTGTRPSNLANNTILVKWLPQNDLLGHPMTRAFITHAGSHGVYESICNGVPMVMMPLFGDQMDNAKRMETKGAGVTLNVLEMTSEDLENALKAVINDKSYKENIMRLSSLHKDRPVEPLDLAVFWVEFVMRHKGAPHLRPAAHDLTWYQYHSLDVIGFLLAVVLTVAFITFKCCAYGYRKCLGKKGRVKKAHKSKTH
Listing: pIC50 of selected compounds
// returns pIC50 (minus log10 of molar concentration), number only

{"Test Smiles": "CO[C@H]1C[C@H](O[C@H]2[C@H](C)[C@@H](O[C@@H]3O[C@H](C)C[C@H](N(C)C)[C@H]3O)[C@@H](C)C[C@@]3(CO3)C(=O)[C@H](C)[C@@H](O)[C@@H](C)[C@@H](C)OC(=O)[C@@H]2C)O[C@@H](C)[C@@H]1O", "pIC50": 4.36}
{"Test Smiles": "Cc1ncc2n1-c1ccc(Cl)cc1C(c1ccccc1F)=NC2", "pIC50": 4.59}
{"Test Smiles": "CC(=O)O[C@H]1C(=O)[C@@]2(C)[C@H]([C@H](OC(=O)c3ccccc3)[C@]3(O)C[C@H](OC(=O)[C@H](O)[C@@H](NC(=O)c4ccccc4)c4ccccc4)C(C)=C1C3(C)C)[C@]1(OC(C)=O)CO[C@@H]1C[C@@H]2O", "pIC50": 4.70}

Prompt line: Return pIC50 measured with UniProt P22309 given this compound: `CC(=O)N1CCN(c2ccc(OC[C@@H]3CO[C@@](Cn4ccnc4)(c4ccc(Cl)cc4Cl)O3)cc2)CC1`
Response line: 5.39

Prompt line: And for `C[C@]12CC[C@H]3[C@@H](CCC4=CC(=O)CC[C@@]43C)[C@@H]1CC[C@@H]2O` ?
Response line: 4.37

----------
Listing: pIC50 of selected compounds
Biological target: UniProt P22310
Sequence (P22310 whole entry): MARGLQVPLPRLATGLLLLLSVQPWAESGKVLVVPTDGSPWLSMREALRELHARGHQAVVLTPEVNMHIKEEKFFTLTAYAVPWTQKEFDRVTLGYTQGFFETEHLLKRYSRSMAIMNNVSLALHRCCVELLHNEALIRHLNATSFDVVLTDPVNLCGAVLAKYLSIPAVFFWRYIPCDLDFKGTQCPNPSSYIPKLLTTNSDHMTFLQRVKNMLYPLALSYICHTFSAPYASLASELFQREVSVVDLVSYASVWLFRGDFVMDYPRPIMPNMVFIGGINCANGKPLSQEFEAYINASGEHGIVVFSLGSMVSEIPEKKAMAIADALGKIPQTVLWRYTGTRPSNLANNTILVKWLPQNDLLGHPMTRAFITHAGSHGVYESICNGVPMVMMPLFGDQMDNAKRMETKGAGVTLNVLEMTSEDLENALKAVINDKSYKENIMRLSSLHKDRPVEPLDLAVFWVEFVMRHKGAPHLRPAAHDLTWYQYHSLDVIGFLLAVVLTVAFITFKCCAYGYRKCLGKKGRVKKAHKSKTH
Counter-ions that a name gives are not always drawn.
// returns pIC50 (minus log10 of molar concentration), number only

Recorded results for 2 compounds are shown here.
{"Compound": "CC(NC(C)(C)C)C(=O)c1cccc(Cl)c1 (stereo not given) [BUPROPION HYDROCHLORIDE]", "Measured Value": 3.82}
{"Compound": "COc1ccc2c(c1)[C@@]13CCCC[C@@H]1[C@@H](C2)N(C)CC3 [Dextromethorphan]", "Measured Value": 4.05}

Now examine the next entry.
Prompt line: pIC50 lookup needed for `O=C(O)Cc1ccccc1Nc1c(Cl)cccc1Cl` , thanks.
Response line: 3.72

----------
Target: UniProtKB P22310
Sequence (P22310 whole entry): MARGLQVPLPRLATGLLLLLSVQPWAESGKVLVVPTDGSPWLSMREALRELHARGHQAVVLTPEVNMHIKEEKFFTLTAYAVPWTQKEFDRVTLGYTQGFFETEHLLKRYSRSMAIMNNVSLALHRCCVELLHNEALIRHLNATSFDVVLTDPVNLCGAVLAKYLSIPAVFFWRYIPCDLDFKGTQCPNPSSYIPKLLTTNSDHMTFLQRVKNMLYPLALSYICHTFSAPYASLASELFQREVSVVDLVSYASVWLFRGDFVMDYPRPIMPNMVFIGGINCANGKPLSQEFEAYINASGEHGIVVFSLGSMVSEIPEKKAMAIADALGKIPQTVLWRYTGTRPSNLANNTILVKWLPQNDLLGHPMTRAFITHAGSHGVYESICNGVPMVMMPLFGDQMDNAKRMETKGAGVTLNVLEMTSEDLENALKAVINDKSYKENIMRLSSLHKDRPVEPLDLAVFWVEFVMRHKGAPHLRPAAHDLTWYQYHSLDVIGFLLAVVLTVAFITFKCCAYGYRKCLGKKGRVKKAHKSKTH
Listing: pIC50 of selected molecules
// returns pIC50 (minus log10 of molar concentration), number only

{"Test Smiles": "CC(=O)N1CCN(c2ccc(OC[C@@H]3CO[C@@](Cn4ccnc4)(c4ccc(Cl)cc4Cl)O3)cc2)CC1", "Value Type": "pIC50", "Measured Value": 4.24}

Prompt line: pIC50 lookup needed for `C=C[C@H]1C[N@@]2CC[C@H]1C[C@@H]2[C@@H](O)c1ccnc2ccc(OC)cc12` , thanks.
Response line: 3.78
